Ref: PubChem BioAssay AID1159580

Listing of entries alongside the reported normalized growth.
Assay: chemical genetic growth profiling, strain panel (AID 1159580);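 also: tested at 20 µM; growth read once vehicle control cultures reached saturation at 30 °C; 1 = growth at the plate median or of vehicle wells; lower values mean less growth of the strain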
Settings: S. cerevisiae deletion strains, growth OD, locus YNL071W, strain lat1, active compounds read low
Screen size: about 5,500 compounds; about 2,000 (36%) were called active. Another 18% or so got no clear call; they are omitted. Some of the results follow.
Output spec: single numeric token, no unit.

// known answers, use as guide
COMPOUND	normalized growth
COc1cc2c(cc1OC)[C@@H]1C(=O)c3ccc(OC)c(CC=C(C)C)c3O[C@@H]1CO2	1.01
COc1cc2c(cc1OC)[C@@H]1C(=O)c3ccc4c(c3O[C@@H]1CO2)C=CC(C)(C)O4	0.942
CC(C)c1c(C(=O)c2ccccc2)c(-c2ccccc2)c(-c2ccc(F)cc2)n1CC[C@@H](O)C[C@@H](O)CC(=O)O	0.939
COc1cc2c(cc1OC)[C@@H]1C(=O)c3ccc4oc(C(C)C)cc4c3O[C@@H]1CO2	1.05

Kindly consider the entry below.
For record CC1=C(CC(=O)O)c2cc(F)ccc2/C1=C\c1ccc(S(C)=O)cc1 (stereo not given) the listed normalized growth is 1.02

* * *

Assay: chemical genetic growth profiling, strain panel (AID 1159580);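 also: tested at 20 µM; growth read once vehicle control cultures reached saturation at 30 °C; 1 = growth at the plate median or of vehicle wells; lower values mean less growth of the strain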
Settings: S. cerevisiae deletion strains, growth OD, locus YLR258W, strain gsy2, active compounds read low
In all, about 5,500 compounds went through this assay and about 2,000 (36%) were called active. About 18% were inconclusive and are not listed. This is one part of the list.
Listing of entries alongside the reported normalized growth.

// known answers, use as guide
MOLECULE	normalized growth
O=C1C=CC(=C(c2ccc(O)cc2)c2ccc(O)cc2)C=C1	1.01 (inactive)
CC(N)CCCC(C)(C)O (stereo not given)	0.982 (inactive)
CN(C)c1ccc(C(=C2C=CC(=[N+](C)C)C=C2)c2ccc(N(C)C)cc2)cc1	0.527 (active)
COC1=C(OC)C(=O)C(C/C=C(\C)CC/C=C(\C)CC/C=C(\C)CC/C=C(/C)CC/C=C(\C)CC/C=C(\C)CC/C=C(\C)CC/C=C(\C)CC/C=C(\C)CCC=C(C)C)=C(C)C1=O	0.982 (inactive)

Kindly consider the entry below.
For record CC1=C(C/C=C(\C)CCC[C@H](C)CCC[C@H](C)CCCC(C)C)C(=O)c2ccccc2C1=O the listed normalized growth is 0.983 (inactive)

* * *

Test: chemical genetic growth profiling, strain panel (AID 1159580);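 also: tested at 20 µM; growth read once vehicle control cultures reached saturation at 30 °C; 1 = growth at the plate median or of vehicle wells; lower values mean less growth of the strain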
Settings: S. cerevisiae deletion strains, growth OD, locus YJR043C, strain POL32
In all, about 5,500 compounds went through this assay and about 2,000 (36%) were called active. Another 18% or so got no clear call; they are omitted. Cut-off read from the data, not from the text of the source: active = normalized growth mostly below about 0.91 (no sharp cut-off); inconclusive = no clear call, values can overlap the other calls; inactive = mostly above about 0.92. The list shows a part of the results.
Classes to choose from: 1 (active), 0 (inactive)

Record excerpt, results attached:
MOLECULE	GROUP
CS(=O)(=O)c1ccc(C2=C(c3ccccc3)C(=O)OC2)cc1	0
Cc1ccc(C)c(NC(=S)N(CCc2ccccc2)CCc2ccccn2)c1	0
CC[C@H](/C=C/C(C)C1CCC2C3CCC4=CC(=O)CC[C@]4(C)C3CC[C@]12C)C(C)C (stereo partly specified)	0
CC[C@H]1OC(=O)[C@H](C)[C@@H](O[C@H]2C[C@@](C)(OC)[C@@H](O)[C@H](C)O2)[C@H](C)[C@@H](O[C@@H]2O[C@H](C)C[C@H](N(C)C)[C@H]2O)[C@](C)(O)C[C@@H](C)CN(C)[C@H](C)[C@@H](O)[C@]1(C)O	0
CCC(=O)O[C@H]1[C@H](O[C@@H]2[C@@H](C)[C@H](O[C@H]3C[C@@](C)(OC)[C@@H](O)[C@H](C)O3)[C@@H](C)C(=O)O[C@H](CC)[C@@](C)(O)[C@H](O)[C@@H](C)C(=O)[C@H](C)C[C@@]2(C)O)O[C@H](C)C[C@@H]1N(C)C	1

Which outcome did this test record for the molecule CNCCc1ccccn1 ?
0

Which outcome did this test record for the molecule C[N+](C)(C)CCCCCC[N+](C)(C)C ?
0

Which outcome did this test record for the molecule c1ccc(N=Nc2ccccc2)cc1 ?
0
